procedure-text: CSF DB829 concentrations in infected vervet monkeys
Format: in vivo, vervet monkey
study-conditions: monkey, CSF, intramuscular; IM 5 mg/kg/day, either regimen; 1 h post-LDD; read-out: CSF concentration as share of total (bound + unbound) plasma concentration
measured-parameter: Kp at 1 h

[[record]]
smiles = "N=C(N)c1ccc(-c2ccc(-c3ccc(C(=N)N)cn3)o2)nc1"
result = "~0.001"


###

procedure-text: Plasma pharmacokinetics in infected vervet monkeys (HPLC-MS/MS)
Format: in vivo, vervet monkey
study-conditions: monkey, in vivo, im, 5 mg/kg, plasma DB829 after 5th IM dose; Group 1 = 5 mg/kg × 5 consecutive days; read-out: Tmax (converted)
measured-parameter: Tmax (min)

[[record]]
smiles = "N=C(N)c1ccc(-c2ccc(-c3ccc(C(=N)N)cn3)o2)nc1"
measured_parameter = "Tmax"
number = 57.6


meta.source: paper PMC4318582
